Data origin: patent US11492346B2

biological target: KAT8 (Homo sapiens (Human)); assay: KAT assay (SAMDI mass spectrometry), KAT8; type: biochemical; conditions: read-out: KAT8 Ki at 1 μM AcCoA
Sequence (Q9H7Z6 whole entry): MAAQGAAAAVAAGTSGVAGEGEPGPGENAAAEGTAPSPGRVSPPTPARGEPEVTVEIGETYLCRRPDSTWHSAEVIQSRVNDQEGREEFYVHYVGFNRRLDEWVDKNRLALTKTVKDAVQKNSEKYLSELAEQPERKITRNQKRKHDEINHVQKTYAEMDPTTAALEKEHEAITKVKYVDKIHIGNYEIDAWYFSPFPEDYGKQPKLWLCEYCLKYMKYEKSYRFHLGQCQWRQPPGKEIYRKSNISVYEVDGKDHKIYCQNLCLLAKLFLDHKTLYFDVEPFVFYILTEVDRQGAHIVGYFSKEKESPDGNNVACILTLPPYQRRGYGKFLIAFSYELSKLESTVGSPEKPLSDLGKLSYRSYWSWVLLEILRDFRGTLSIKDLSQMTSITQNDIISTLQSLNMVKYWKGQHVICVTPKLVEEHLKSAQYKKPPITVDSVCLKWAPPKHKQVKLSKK
quantity kind: Ki (µM)

# molecule, result unit, number
records = [
    ("COc1cccc(OC)c1S(=O)(=O)Nc1noc2cc(Cn3nccc3C)cc(OC)c12", "µM", 17.4),
]

a = COc1ccc(OC(F)(F)F)cc1S(=O)(=O)Nc1noc2cc(Cn3cccn3)cc(OC)c12
b = COc1ccc(S(=O)(=O)Nc2noc3cc(Cn4cccn4)cc(OC)c23)cc1C
c = COc1ccc2c(c1S(=O)(=O)Nc1noc3cc(Cn4cccn4)cc(OC)c13)CCCC2
Q) Would you mind ranking these compounds by ascending Ki? Write the labels out in the order the request specifies.
A) c, a, b

====

target: KAT7 (Homo sapiens (Human), UniProt O95251); assay: KAT assay (SAMDI mass spectrometry), KAT7; format: biochemical; conditions: read-out: KAT7 Ki at 1 μM AcCoA;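 also: Baculovirus-expressed enzyme acetylating a histone peptide at room temperature, percent conversion from product and substrate peak areas, Ki from a Morrison tight-binding competitive fit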
Sequence (O95251 whole entry): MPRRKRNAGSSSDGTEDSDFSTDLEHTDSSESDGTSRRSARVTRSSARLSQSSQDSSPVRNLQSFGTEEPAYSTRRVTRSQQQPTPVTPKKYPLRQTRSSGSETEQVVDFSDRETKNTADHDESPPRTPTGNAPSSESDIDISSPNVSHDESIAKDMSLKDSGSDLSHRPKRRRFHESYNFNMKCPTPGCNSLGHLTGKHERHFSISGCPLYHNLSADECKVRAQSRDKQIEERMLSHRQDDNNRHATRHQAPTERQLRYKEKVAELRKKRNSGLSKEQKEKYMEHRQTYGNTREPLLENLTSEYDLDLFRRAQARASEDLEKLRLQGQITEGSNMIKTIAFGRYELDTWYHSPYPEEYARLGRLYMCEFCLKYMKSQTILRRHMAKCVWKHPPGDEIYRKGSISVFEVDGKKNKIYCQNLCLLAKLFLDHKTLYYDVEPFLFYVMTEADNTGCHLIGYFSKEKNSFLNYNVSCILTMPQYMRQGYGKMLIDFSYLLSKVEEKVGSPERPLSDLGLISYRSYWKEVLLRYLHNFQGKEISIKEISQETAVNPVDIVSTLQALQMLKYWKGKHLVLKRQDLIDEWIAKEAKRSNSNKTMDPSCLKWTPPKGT
quantity kind: Ki (nM)

# compound, target or system, quantity kind, number
rows = [
    ("COc1cccc(OC)c1S(=O)(=O)Nc1noc2cc(Cc3cnccn3)cc(OC)c12 [Example 111]", "KAT7 (Homo sapiens (Human), UniProt O95251)", "Ki", 390),
]

A = COc1cccc(OC)c1S(=O)(=O)Nc1noc2cc(Cn3cc(CO)cn3)cc(OC)c12 [Example 87]
B = COc1cccc(OC)c1S(=O)(=O)Nc1noc2cc(Cc3cc[nH]n3)cc(OC)c12 [Example 119]
C = COC(=O)c1c(C)cccc1S(=O)(=O)Nc1noc2cc(Cn3cccn3)cc(OC)c12 [Example 74]
D = COc1cccc(OC)c1S(=O)(=O)Nc1noc2cc(C(O)c3cnccn3)cc(OC)c12 (stereo not drawn) [Example 123]
E = CCOc1cc(C)ccc1S(=O)(=O)Nc1noc2cc(Cn3cccn3)cc(OC)c12 [Example 50]
Q) Would you mind ranking these compounds by ascending Ki? Write the labels out in the order the request specifies.
A) E, B, A, C, D
(E: 20 nM, B: 650 nM, A: 1840 nM, C: 2870 nM, D: 4600 nM)

a = COc1cc(Cn2cccn2)cc2onc(NS(=O)(=O)c3ccccc3C(F)(F)F)c12 [Example 52]
b = COc1cc(Cn2cccn2)cc2onc(NS(=O)(=O)c3ccc(C(F)(F)F)cc3)c12 [Example 46]
Q) Given a and b , report the one with the higher recorded Ki. Refer to your chosen item by its label in the answer.
A) b
(b: 1030 nM, a: 660 nM)

====

target: TIP60-KAT5 (Homo sapiens (Human), UniProt Q92993)
Sequence (Q92993 other isoform, or with tags, fused parts or gaps): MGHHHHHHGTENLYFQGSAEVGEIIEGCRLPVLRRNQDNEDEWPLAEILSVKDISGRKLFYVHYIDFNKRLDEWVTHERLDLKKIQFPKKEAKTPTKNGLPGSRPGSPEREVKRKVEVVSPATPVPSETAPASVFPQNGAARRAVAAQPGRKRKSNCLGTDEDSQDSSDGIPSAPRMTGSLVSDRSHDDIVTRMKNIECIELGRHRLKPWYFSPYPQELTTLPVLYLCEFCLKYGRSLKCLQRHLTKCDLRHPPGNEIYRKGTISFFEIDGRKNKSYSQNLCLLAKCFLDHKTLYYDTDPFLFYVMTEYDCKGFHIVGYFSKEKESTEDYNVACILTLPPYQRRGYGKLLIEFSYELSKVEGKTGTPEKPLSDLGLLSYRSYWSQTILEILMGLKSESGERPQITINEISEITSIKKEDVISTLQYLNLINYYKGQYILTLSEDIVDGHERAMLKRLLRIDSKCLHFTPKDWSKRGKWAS
quantity kind: IC50 (µM)
Write the number in µM without appending the unit.

# molecule, result unit, IC50
measured = [
    ("COc1cccc(OC)c1S(=O)(=O)Nc1noc2cc(-c3cnn(C)c3)cc(OC)c12", "µM", 11.2),
    ("COc1cccc(OC)c1S(=O)(=O)Nc1noc2cc(Cn3cc(C)cn3)cc(OC)c12", "µM", 11.2),
]

Q) Kindly state the measured IC50 obtained for COc1cc(Cn2cccn2)cc2onc(NS(=O)(=O)c3cccc4cc(C)cnc34)c12 with TIP60-KAT5 (Homo sapiens (Human), UniProt Q92993).
A) 0.98

====

target: KAT6A (Homo sapiens (Human)); assay: KAT assay (SAMDI mass spectrometry), KAT6A; assay type: biochemical; conditions: read-out: KAT6a Ki at 10 μM AcCoA; 10 μM AcCoA
quantity kind: Ki (nM)

Consider the reported Ki for these molecules:
# molecule, Ki, nM
records = [
    ("COc1cc(Cn2cccn2)cc2onc(NS(=O)(=O)c3cccc(F)c3C)c12", 7.31),
    ("COc1cccc(OC)c1S(=O)(=O)Nc1noc2cc(Cn3cccn3)c(F)c(OC)c12", 0.59),
    ("COc1ccc(C)cc1S(=O)(=O)Nc1noc2cc(Cn3cccn3)cc(OC)c12", 0.51),
]

a = CCc1ccc(OC)c(S(=O)(=O)Nc2noc3cc(Cn4cccn4)cc(OC)c23)c1
b = COc1cc(OC)cc(S(=O)(=O)Nc2noc3cc(Cn4cccn4)cc(OC)c23)c1
c = COc1cccc(OC)c1S(=O)(=O)Nc1noc2cc(Cc3ccccn3)cc(OC)c12
d = CCOc1ccccc1S(=O)(=O)Nc1noc2cc(Cn3cccn3)cc(OC)c12
e = CNC(=O)c1ccc(S(=O)(=O)Nc2noc3cc(Cn4cccn4)cc(OC)c23)cc1
Q) Would you mind ranking these molecules by ascending Ki? Write the labels out in the order the request specifies.
A) a, d, c, b, e
(a: 0.43 nM, d: 1.67 nM, c: 2.6 nM, b: 5.32 nM, e: 65.6 nM)

====

In what follows, each item is paired with its pIC50 for HBO1-KAT7 (Homo sapiens (Human), UniProt O95251).
Answer as the number alone; pIC50 is minus log10 of concentration in mol/L.

Consider the reported pIC50 for these molecules:
# molecule, target or system, number
data = [
    ("COc1cccc(OC)c1S(=O)(=O)Nc1noc2c(-c3cnn(C)c3)cc(C)cc12", "HBO1-KAT7 (Homo sapiens (Human), UniProt O95251)", 5.85),
    ("COc1cccc(OC)c1S(=O)(=O)Nc1noc2cc(-c3cnn(C)c3)cc(OC)c12", "HBO1-KAT7 (Homo sapiens (Human), UniProt O95251)", 5.81),
    ("COc1cccc(OC)c1S(=O)(=O)Nc1noc2cc(Cn3cc(C)cn3)cc(OC)c12", "HBO1-KAT7 (Homo sapiens (Human), UniProt O95251)", 6.47),
]

Q) What value of pIC50 has been recorded for this entry: COc1cc(Cn2cccn2)cc2onc(NS(=O)(=O)c3cccc4cc(C)cnc34)c12
A) 6.92

====

target: KAT5 (Homo sapiens (Human), UniProt Q92993); assay: KAT assay (SAMDI mass spectrometry), KAT5; type: biochemical; conditions: 1 μM AcCoA
Sequence (Q92993 whole entry): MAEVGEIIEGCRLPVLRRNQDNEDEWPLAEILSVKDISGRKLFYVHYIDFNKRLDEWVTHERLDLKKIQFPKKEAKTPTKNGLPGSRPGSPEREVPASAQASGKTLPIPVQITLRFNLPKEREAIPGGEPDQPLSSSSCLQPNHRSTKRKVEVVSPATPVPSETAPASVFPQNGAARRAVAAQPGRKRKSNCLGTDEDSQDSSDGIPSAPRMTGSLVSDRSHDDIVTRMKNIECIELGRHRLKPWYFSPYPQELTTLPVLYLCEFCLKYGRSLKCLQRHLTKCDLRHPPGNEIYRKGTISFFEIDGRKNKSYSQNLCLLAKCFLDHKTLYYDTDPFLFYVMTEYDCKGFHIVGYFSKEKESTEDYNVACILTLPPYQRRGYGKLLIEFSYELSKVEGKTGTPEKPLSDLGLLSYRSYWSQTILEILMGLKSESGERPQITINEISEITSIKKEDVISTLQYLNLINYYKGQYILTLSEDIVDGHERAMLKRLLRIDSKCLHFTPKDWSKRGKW
quantity kind: pKi
Answer as the number alone; pKi is minus log10 of concentration in mol/L.

# compound, pKi
measured = [
    ("COc1cccc(OC)c1S(=O)(=O)Nc1noc2cc(Cn3cc(C)cn3)cc(OC)c12 [Example 100]", 5.21),
]

--- query ---
Q) What value of pKi has been recorded for this entry: COc1ccccc1S(=O)(=O)Nc1noc2cc(Cn3cccn3)cc(OC)c12 [Example 45]
A) 6.49

====

target: KAT6A (Homo sapiens (Human), UniProt Q92794); experiment: KAT assay (SAMDI mass spectrometry), KAT6A; assay type: biochemical; conditions: read-out: KAT6a Ki at 1 μM AcCoA; 1 μM AcCoA;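 also: Baculovirus-expressed KAT6A acetylating histone H3 (1-21) peptide (2 µM), 30-60 min at room temperature, % product conversion fitted to Morrison equation for tight-binding competitive inhibitors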
Sequence (Q92794 whole entry): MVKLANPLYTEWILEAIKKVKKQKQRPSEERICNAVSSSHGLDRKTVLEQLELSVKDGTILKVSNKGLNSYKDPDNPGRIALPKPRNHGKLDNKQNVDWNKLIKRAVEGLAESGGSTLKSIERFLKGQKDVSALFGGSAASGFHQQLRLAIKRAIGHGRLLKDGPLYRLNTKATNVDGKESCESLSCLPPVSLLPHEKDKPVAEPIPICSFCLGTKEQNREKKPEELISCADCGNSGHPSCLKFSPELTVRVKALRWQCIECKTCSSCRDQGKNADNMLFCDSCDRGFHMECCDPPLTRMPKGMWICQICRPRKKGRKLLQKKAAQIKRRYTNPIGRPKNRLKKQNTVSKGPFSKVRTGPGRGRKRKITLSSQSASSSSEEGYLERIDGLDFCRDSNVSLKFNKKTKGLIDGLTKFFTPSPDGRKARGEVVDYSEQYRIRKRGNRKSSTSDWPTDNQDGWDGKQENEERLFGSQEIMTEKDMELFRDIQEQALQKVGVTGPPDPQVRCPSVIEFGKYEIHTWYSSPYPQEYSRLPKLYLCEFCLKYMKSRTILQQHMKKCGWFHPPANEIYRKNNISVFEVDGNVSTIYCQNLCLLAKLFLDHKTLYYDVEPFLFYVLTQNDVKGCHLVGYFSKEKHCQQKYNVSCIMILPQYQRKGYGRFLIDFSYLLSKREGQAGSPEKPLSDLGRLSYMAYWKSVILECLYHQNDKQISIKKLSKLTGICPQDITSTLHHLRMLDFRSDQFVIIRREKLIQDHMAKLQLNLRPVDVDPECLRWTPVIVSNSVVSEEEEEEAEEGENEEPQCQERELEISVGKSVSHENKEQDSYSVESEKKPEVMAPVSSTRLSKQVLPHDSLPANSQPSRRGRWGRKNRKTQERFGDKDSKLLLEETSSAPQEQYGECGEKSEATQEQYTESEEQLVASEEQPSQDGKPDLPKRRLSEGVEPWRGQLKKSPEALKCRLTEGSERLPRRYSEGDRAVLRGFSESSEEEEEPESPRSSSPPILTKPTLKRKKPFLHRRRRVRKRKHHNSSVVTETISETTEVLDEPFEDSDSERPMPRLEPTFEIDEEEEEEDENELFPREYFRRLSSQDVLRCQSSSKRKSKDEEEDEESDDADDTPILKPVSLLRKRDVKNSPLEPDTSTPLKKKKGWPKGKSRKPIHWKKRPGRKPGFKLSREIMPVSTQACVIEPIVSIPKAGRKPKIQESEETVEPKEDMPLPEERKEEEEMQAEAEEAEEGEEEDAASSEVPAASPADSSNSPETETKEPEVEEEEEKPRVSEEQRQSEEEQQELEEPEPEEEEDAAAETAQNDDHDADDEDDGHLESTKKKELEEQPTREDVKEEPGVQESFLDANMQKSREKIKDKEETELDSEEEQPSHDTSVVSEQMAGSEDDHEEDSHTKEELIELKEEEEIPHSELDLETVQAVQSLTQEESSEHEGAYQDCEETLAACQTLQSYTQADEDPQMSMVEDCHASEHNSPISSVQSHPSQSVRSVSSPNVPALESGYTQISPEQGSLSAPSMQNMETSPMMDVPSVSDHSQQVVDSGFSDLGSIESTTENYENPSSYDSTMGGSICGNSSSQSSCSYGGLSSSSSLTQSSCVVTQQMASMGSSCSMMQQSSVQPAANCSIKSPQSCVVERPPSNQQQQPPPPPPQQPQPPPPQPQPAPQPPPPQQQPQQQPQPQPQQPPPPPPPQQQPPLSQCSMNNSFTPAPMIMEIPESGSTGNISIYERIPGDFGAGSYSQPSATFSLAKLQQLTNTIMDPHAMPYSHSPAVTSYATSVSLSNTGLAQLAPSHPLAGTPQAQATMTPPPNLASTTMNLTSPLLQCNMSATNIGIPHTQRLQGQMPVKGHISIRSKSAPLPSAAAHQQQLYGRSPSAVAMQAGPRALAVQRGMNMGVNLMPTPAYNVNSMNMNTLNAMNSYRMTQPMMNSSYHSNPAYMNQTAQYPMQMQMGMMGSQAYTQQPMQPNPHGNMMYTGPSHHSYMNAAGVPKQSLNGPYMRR
pKi: −log10 of the molar value.
quantity kind: pKi

a = COc1cc(Cn2cccn2)cc2onc(NS(=O)(=O)c3ccc(C)c(C)c3)c12 [Example 72]
b = COc1cccc(OC)c1S(=O)(=O)Nc1noc2cc(Cn3cccn3)c(C)cc12 [Example 27]
c = COc1cc(Cn2cccn2)cc2onc(NS(=O)(=O)c3cccc(F)c3Cl)c12 [Example 63]
Q) Form: Sort by [pKi] Order [ ascending ] Write the labels out in the order the request specifies.
A) c, a, b

====

biological target: KAT6A (Homo sapiens (Human)); experiment: KAT assay (SAMDI mass spectrometry), KAT6A; assay type: biochemical; conditions: read-out: KAT6a Ki at 1 μM AcCoA; 1 μM AcCoA
quantity kind: Ki (nM)

# compound, result unit, Ki
records = [
    ("COc1ccc2c(c1S(=O)(=O)Nc1noc3cc(Cn4cccn4)cc(OC)c13)CCCC2 [Example 21]", "nM", 1.23),
    ("COc1ccc(C(C)C)cc1S(=O)(=O)Nc1noc2cc(Cn3cccn3)cc(OC)c12 [Example 18]", "nM", 0.83),
    ("CNC(=O)c1ccc(S(=O)(=O)Nc2noc3cc(Cn4cccn4)cc(OC)c23)cc1 [Example 66]", "nM", 95.4),
    ("COc1cccc(OC)c1S(=O)(=O)Nc1noc2cc(Cn3cccn3)cc(OC3CC3)c12 [Example 11]", "nM", 2.86),
]

P = COc1cc(Cn2cccn2)cc2onc(NS(=O)(=O)c3ccc(C(F)F)cc3)c12 [Example 77]
Q = COc1cccc(OC)c1S(=O)(=O)Nc1noc2cc(Cn3cccn3)c(Br)cc12 [Example 92]
Q) Lower value of Ki belongs to which: P or Q ? Refer to your chosen item by its label in the answer.
A) Q

====

target: KAT6A (Homo sapiens (Human)); test: KAT assay (SAMDI mass spectrometry), KAT6A; type: biochemical; conditions: read-out: KAT6a Ki at 1 μM AcCoA; 1 μM AcCoA
pKi: −log10 of the molar value.
quantity kind: pKi

# compound, pKi
rows = [
    ("COc1ccccc1S(=O)(=O)Nc1noc2cc(Cn3cccn3)ccc12 [Example 34]", 7.52),
    ("COc1cccc(OC)c1S(=O)(=O)Nc1noc2cc(Cc3cocn3)cc(OC)c12 [Example 127]", 8.07),
    ("COc1cccc(OC)c1S(=O)(=O)Nc1noc2cc(Cn3ncc4ccccc43)cc(OC)c12 [Example 30]", 7.22),
    ("COc1cccc(OC)c1S(=O)(=O)Nc1noc2cc(Cc3cnn(C)c3)cc(OC)c12 [Example 124]", 6.15),
    ("COc1cc(Cn2cccn2)cc2onc(NS(=O)(=O)c3cc(C)c(F)c(C)c3)c12 [Example 78]", 8.25),
    ("COc1cc(Cn2cccn2)cc2onc(NS(=O)(=O)c3ccc(C)cc3F)c12 [Example 65]", 8.22),
]

P = COc1cccc(OC)c1S(=O)(=O)Nc1noc2cc(Cn3cc(O)cn3)cc(OC)c12 [Example 105]
Q = COc1ccc(S(=O)(=O)Nc2noc3cc(Cn4cccn4)cc(OC)c23)cc1C [Example 84]
Q) Given P and Q , report the one with the higher recorded pKi. Refer to your chosen item by its label in the answer.
A) P

A = CCOc1cc(C)ccc1S(=O)(=O)Nc1noc2cc(Cn3cccn3)cc(OC)c12 [Example 50]
B = COc1ccccc1S(=O)(=O)Nc1noc2cc(Cn3cccn3)cc(C3CC3)c12 [Example 130]
Q) Lower value of pKi belongs to which: A or B ? Refer to your chosen item by its label in the answer.
A) B

I = COc1cc(C)ccc1S(=O)(=O)Nc1noc2cc(Cn3cccn3)cc(OC)c12 [Example 47]
II = COc1cc2c(cc1S(=O)(=O)Nc1noc3cc(Cn4cccn4)cc(OC)c13)CCC2 [Example 29]
III = COc1ccc(O)c(OC)c1S(=O)(=O)Nc1noc2cc(Cn3cccn3)cc(OC)c12 [Example 103]
Q) Would you mind ranking these compounds by ascending pKi? Write the labels out in the order the request specifies.
A) I, II, III
(I: 8.94, II: 9.28, III: 9.52)
